Target System: human orexin type 2 receptor (hOX2R) (Homo sapiens)
Construct: expressed in transfected cells
Sequence (O43614 whole entry): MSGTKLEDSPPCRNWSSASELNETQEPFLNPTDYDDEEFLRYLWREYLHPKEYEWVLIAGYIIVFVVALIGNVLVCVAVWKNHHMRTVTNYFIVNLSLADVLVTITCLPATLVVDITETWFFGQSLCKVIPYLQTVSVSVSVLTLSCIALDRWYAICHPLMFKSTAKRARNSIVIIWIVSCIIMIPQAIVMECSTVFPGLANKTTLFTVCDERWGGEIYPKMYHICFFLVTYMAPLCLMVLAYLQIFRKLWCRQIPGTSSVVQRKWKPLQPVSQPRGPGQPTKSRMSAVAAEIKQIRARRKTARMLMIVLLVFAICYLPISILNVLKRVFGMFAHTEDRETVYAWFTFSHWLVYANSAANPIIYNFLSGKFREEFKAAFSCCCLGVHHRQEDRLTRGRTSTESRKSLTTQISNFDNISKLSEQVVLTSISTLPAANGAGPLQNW
Assay Comment: Measurement of orexin type 2 receptor agonist activity (CHO cells, FLIPR TETRA intracellular Ca2+)
Type: cell-based
Condition Info: CHO cells expressing hOX2R, Ca2+ fluorescence; read-out: hOX2 pEC50 (converted)
Where a SMILES comes first, the peptide text is derived from it. [ ]: non-standard residue; d: D form. Phg = N[C@H](C(=O)O)c1ccccc1; Nle = CCCC[C@H](N)C(=O)O
Entries and their EC50 values follow.

CCCC[C@H](NC(=O)[C@@H](NC(=O)[C@H](CC(C)C)NC(=O)[C@@H](NC(=O)CNC(=O)[C@H](C)NC(=O)[C@H](C)NC(=O)[C@H](Cc1c[nH]cn1)NC(=O)[C@H](CC(N)=O)NC(=O)CNC(=O)[C@H](CO)NC(=O)[C@@H](C)NC(=O)[C@@H](Cc1ccccc1)NC(=O)[C@H](CC(C)C)NC(=O)[C@@H](N)Cc1ccccc1)[C@@H](C)CC)[C@@H](C)O)C(N)=O [compound 13] (H-FL[dF][dA]SGNHAAGILT[Nle]-NH2) | < 100 pM

Then there is this compound:
Reported EC50 for CCCC[C@H](NC(=O)[C@@H](NC(=O)[C@H](CC(C)C)NC(=O)[C@@H](NC(=O)CNC(=O)[C@@H](NC(=O)[C@H](C)NC(=O)[C@H](Cc1c[nH]cn1)NC(=O)[C@H](CC(N)=O)NC(=O)CNC(=O)[C@H](CO)NC(=O)[C@H](C)NC(=O)[C@H](Cc1c[nH]c2ccccc12)NC(=O)[C@@H](CC(C)C)NC(=O)[C@@H](N)CC(C)C)c1ccccc1)[C@@H](C)CC)[C@@H](C)O)C(N)=O [compound 11] (H-L[dL]WASGNHA[Phg]GILT[Nle]-NH2) : what is it? < 100 pM

---

Entries and their EC50 values follow.
Target System: human orexin type 1 receptor (hOX1R) (Homo sapiens)
Construct: expressed in transfected cells
Sequence (O43613 whole entry): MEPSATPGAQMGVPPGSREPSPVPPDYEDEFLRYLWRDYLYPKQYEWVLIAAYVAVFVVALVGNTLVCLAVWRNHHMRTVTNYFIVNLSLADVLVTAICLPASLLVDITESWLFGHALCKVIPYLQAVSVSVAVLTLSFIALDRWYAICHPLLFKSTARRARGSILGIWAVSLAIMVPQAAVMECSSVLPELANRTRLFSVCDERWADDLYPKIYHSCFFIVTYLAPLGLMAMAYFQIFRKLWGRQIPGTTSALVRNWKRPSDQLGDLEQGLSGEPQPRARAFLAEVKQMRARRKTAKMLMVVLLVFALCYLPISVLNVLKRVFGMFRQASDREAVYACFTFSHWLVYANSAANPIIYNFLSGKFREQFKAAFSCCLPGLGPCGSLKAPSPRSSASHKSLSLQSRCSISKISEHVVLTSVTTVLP
Assay Comment: Measurement of orexin type 1 receptor agonist activity (CHO cells, FLIPR TETRA intracellular Ca2+)
Format: cell-based
Condition Info: CHO cells expressing hOX1R, Ca2+ fluorescence; read-out: hOX1 pEC50 (converted)
Text: In some embodiments, the assay uses cells stably expressing either human orexin type 2 or human orexin type 1 receptor. In some embodiments, the cells are obtained by inserting the Orexin receptor cDNA into pcDNA3.1(+) plasmid vector, identifying clones by G418 drug resistance selection, and/or growing a single clone for OX2R-CHO and OX1R-CHO in bulk. In some embodiments, the assay is detected using Fluorescent Imaging Plate Reader TETRA (FLIPR TETRA: manufactured by Molecular Devices). […]
Where a SMILES comes first, the peptide text is derived from it. [ ]: non-standard residue; d: D form. Gly(NCH2CH2Ph) = O=C(O)CNCCc1ccccc1; Hyp = O=C(O)[C@@H]1C[C@@H](O)CN1; Aoc(2) = CCCCCC[C@H](N)C(=O)O; Phg = N[C@H](C(=O)O)c1ccccc1; Nle = CCCC[C@H](N)C(=O)O

As a guide, the following entries are already answered.
CCCC[C@H](NC(=O)[C@@H](NC(=O)[C@H](CC(C)C)NC(=O)[C@@H](NC(=O)CNC(=O)[C@H](C)NC(=O)[C@H](C)NC(=O)[C@H](Cc1c[nH]cn1)NC(=O)[C@H](CC(N)=O)NC(=O)CNC(=O)[C@H](CO)NC(=O)[C@@H](C)NC(=O)[C@@H](Cc1ccccc1)NC(=O)[C@H](CC(C)C)NC(=O)[C@@H](N)CC(C)C)[C@@H](C)CC)[C@@H](C)O)C(N)=O [compound 12] (H-LL[dF][dA]SGNHAAGILT[Nle]-NH2) | > 10 nM
CCCC[C@H](NC(=O)[C@@H](NC(=O)[C@H](CC(C)C)NC(=O)[C@@H](NC(=O)CNC(=O)[C@@H](NC(=O)[C@H](C)NC(=O)[C@H](Cc1c[nH]cn1)NC(=O)[C@H](CC(N)=O)NC(=O)CNC(=O)[C@H](CO)NC(=O)[C@H](C)NC(=O)[C@H](Cc1c[nH]c2ccccc12)NC(=O)[C@@H](CC(C)C)NC(=O)[C@@H](N)CC(C)C)c1ccccc1)[C@@H](C)CC)[C@@H](C)O)C(N)=O [compound 11] (H-L[dL]WASGNHA[Phg]GILT[Nle]-NH2) | > 10 nM

Lab note: need EC50 for CCCC[C@H](NC(=O)[C@@H](NC(=O)[C@H](CC(C)C)NC(=O)[C@@H](NC(=O)CNC(=O)[C@H](C)NC(=O)[C@H](C)NC(=O)[C@H](Cc1c[nH]cn1)NC(=O)[C@H](CC(N)=O)NC(=O)CNC(=O)[C@H](CO)NC(=O)[C@@H](C)NC(=O)[C@@H](Cc1ccccc1)NC(=O)[C@@H](CC(C)C)NC(=O)[C@@H](N)CC(C)C)[C@@H](C)CC)[C@@H](C)O)C(N)=O [compound 14] (H-L[dL][dF][dA]SGNHAAGILT[Nle]-NH2) on human orexin type 1 receptor (hOX1R) (Homo sapiens), anyone have it? > 10 nM

Lab note: need EC50 for CCCCCC[C@H](NC(=O)[C@@H](NC(=O)[C@H](CC(C)C)NC(=O)[C@@H](NC(=O)CNC(=O)[C@@H](NC(=O)[C@H](C)NC(=O)[C@@H]1C[C@@H](O)CN1C(=O)[C@H](CC(N)=O)NC(=O)CN(CCc1ccccc1)C(=O)[C@H](CCCNC(=N)N)NC(=O)[C@H](CCCNC(=N)N)NC(=O)[C@@H]1C[C@@H](O)CN1C(=O)[C@@H]1C[C@@H](O)CN1C(=O)[C@@H]1C[C@@H](O)CN1)c1ccccc1)[C@@H](C)CC)[C@@H](C)O)C(N)=O [compound 15] (H-[Hyp][Hyp][Hyp]RR[Gly(NCH2CH2Ph)]N[Hyp]A[Phg]GILT[Aoc(2)]-NH2) on human orexin type 1 receptor (hOX1R) (Homo sapiens), anyone have it? 1 to 10 nM

Lab note: need EC50 for CCCC[C@H](NC(=O)[C@@H](NC(=O)[C@H](CC(C)C)NC(=O)[C@@H](NC(=O)CNC(=O)[C@H](C)NC(=O)[C@H](C)NC(=O)[C@H](Cc1c[nH]cn1)NC(=O)[C@H](CC(N)=O)NC(=O)CNC(=O)[C@H](CO)NC(=O)[C@@H](C)NC(=O)[C@@H](Cc1ccccc1)NC(=O)[C@H](CC(C)C)NC(=O)[C@@H](N)Cc1ccccc1)[C@@H](C)CC)[C@@H](C)O)C(N)=O [compound 13] (H-FL[dF][dA]SGNHAAGILT[Nle]-NH2) on human orexin type 1 receptor (hOX1R) (Homo sapiens), anyone have it? > 10 nM

Lab note: need EC50 for CCCC[C@H](NC(=O)[C@@H](NC(=O)[C@H](CC(C)C)NC(=O)[C@@H](NC(=O)CNC(=O)[C@@H](NC(=O)[C@H](C)NC(=O)[C@H](Cc1c[nH]cn1)NC(=O)[C@H](CC(N)=O)NC(=O)CNC(=O)[C@H](CO)NC(=O)[C@H](C)NC(=O)[C@H](Cc1c[nH]c2ccccc12)NC(=O)[C@@H](CC(C)C)NC(=O)[C@@H](N)Cc1ccccc1)c1ccccc1)[C@@H](C)CC)[C@@H](C)O)C(N)=O [compound 10] (H-F[dL]WASGNHA[Phg]GILT[Nle]-NH2) on human orexin type 1 receptor (hOX1R) (Homo sapiens), anyone have it? > 10 nM
